The following compounds are shown together with reported minimum inhibitory concentration (MIC) values.
- Test system: PSEUDOMONAS AERUGINOSA K799/WT
- assay.protocol: In vitro antibacterial activity (MIC), agar dilution
- Assay type: cell-based
- experimental.parameters: P. aeruginosa K799/WT; BHI agar, 35-37 °C, 20-24 h
measured.endpoint: minimum inhibitory concentration (MIC)

INSERT INTO assay_data (compound, value_observed) VALUES
  ('CC[C@H]1OC(=O)[C@H](C)C[C@H](C)[C@@H](O[C@@H]2O[C@H](C)C[C@H](N(C)C)[C@H]2O)[C@](C)(OC)C[C@@H](C)C(=NOC)[C@H](C)[C@@H](O)[C@]1(C)O [Ex. 6]', '> 100'),
  ('CC[C@H]1OC(=O)[C@H](C)C[C@H](C)[C@@H](O[C@@H]2O[C@H](C)C[C@H](N(C)C)[C@H]2O)[C@](C)(OC)C[C@@H](C)C(=O)[C@H](C)[C@@H](O)[C@]1(C)O [Ex. 1]', '> 100'),
  ('CC[C@H]1OC(=O)[C@H](C)C[C@H](C)[C@@H](O[C@@H]2O[C@H](C)C[C@H](N(C)C)[C@H]2O)[C@](C)(OC)C[C@@H](C)C(=NO)[C@H](C)[C@@H](O)[C@]1(C)O [Ex. 2]', '> 100');

###

- Tested on: STAPHYLOCOCCUS AUREUS CMX 642A
- assay.protocol: In vitro antibacterial activity (MIC), agar dilution
- Format: cell-based
- experimental.parameters: S. aureus CMX 642A; BHI agar, 35-37 °C, 20-24 h
Label yes when minimum inhibitory concentration (MIC) >= 10; otherwise no.

INSERT INTO assay_data (smiles_notation, label_value) VALUES
  ('CC[C@H]1OC(=O)[C@H](C)C[C@H](C)[C@@H](O[C@@H]2O[C@H](C)C[C@H](N(C)C)[C@H]2O)[C@](C)(OC)C[C@@H](C)C(=O)[C@H](C)[C@H]2N(CCCCc3ccccc3)C(=O)O[C@]12C', 'no'),
  ('CC[C@H]1OC(=O)[C@H](C)C[C@H](C)[C@@H](O[C@@H]2O[C@H](C)C[C@H](N(C)C)[C@H]2O)[C@](C)(OC)C[C@@H](C)C(=O)[C@H](C)[C@H]2OC(=O)O[C@@]21C', 'no'),
  ('CC[C@H]1OC(=O)[C@H](C)C[C@H](C)[C@@H](O[C@@H]2O[C@H](C)C[C@H](N(C)C)[C@H]2O)[C@](C)(OC)C[C@@H](C)C(=O)[C@H](C)[C@H]2N(CCc3ccc(Oc4ccccc4)cc3)C(=O)O[C@]12C', 'yes'),
  ('CC[C@H]1OC(=O)[C@H](C)C[C@H](C)[C@@H](O[C@@H]2O[C@H](C)C[C@H](N(C)C)[C@H]2O)[C@](C)(OC)C[C@@H](C)C(=O)[C@H](C)[C@@H](O)[C@]1(C)O', 'yes'),
  ('CC[C@H]1OC(=O)[C@H](C)C[C@H](C)[C@@H](O[C@@H]2O[C@H](C)C[C@H](N(C)C)[C@H]2O)[C@](C)(OC)C[C@@H](C)C(=NOC)[C@H](C)[C@@H](O)[C@]1(C)O', 'no');

###

The following compounds are shown together with reported minimum inhibitory concentration (MIC) values.
- System: STAPHYLOCOCCUS AUREUS A-5278
- assay.protocol: In vitro antibacterial activity (MIC), agar dilution
- Format: cell-based
- experimental.parameters: S. aureus A-5278; BHI agar, 35-37 °C, 20-24 h
measured.endpoint: minimum inhibitory concentration (MIC)

INSERT INTO results (compound, tgt, value_observed) VALUES
  ('CC[C@H]1OC(=O)[C@H](C)C[C@H](C)[C@@H](O[C@@H]2O[C@H](C)C[C@H](N(C)C)[C@H]2O)[C@](C)(OC)C[C@@H](C)C(=O)[C@H](C)[C@H]2N(CCCCc3ccccc3)C(=O)O[C@]12C [Ex. 4]', 'STAPHYLOCOCCUS AUREUS A-5278', 50),
  ('CC[C@H]1OC(=O)[C@H](C)C[C@H](C)[C@@H](O[C@@H]2O[C@H](C)C[C@H](N(C)C)[C@H]2O)[C@](C)(OC)C[C@@H](C)C(=O)[C@H](C)[C@H]2N(CCc3ccc(Oc4ccccc4)cc3)C(=O)O[C@]12C [Ex. 5]', 'STAPHYLOCOCCUS AUREUS A-5278', 25),
  ('CC[C@H]1OC(=O)[C@H](C)C[C@H](C)[C@@H](O[C@@H]2O[C@H](C)C[C@H](N(C)C)[C@H]2O)[C@](C)(OC)C[C@@H](C)C(=O)[C@H](C)[C@@H](O)[C@]1(C)O [Ex. 1]', 'STAPHYLOCOCCUS AUREUS A-5278', '> 100'),
  ('CC[C@H]1OC(=O)[C@H](C)[C@@H](O[C@H]2C[C@@](C)(OC)[C@@H](O)[C@H](C)O2)[C@H](C)[C@@H](O[C@@H]2O[C@H](C)C[C@H](N(C)C)[C@H]2O)[C@](C)(O)C[C@@H](C)C(=O)[C@H](C)[C@@H](O)[C@]1(C)O [Ery A, Erythromycin A, reference compound]', 'STAPHYLOCOCCUS AUREUS A-5278', '> 100'),
  ('CC[C@H]1OC(=O)[C@H](C)C[C@H](C)[C@@H](O[C@@H]2O[C@H](C)C[C@H](N(C)C)[C@H]2O)[C@](C)(OC)C[C@@H](C)C(=O)[C@H](C)[C@H]2OC(=O)O[C@@]21C [Ex. 3]', 'STAPHYLOCOCCUS AUREUS A-5278', '> 100'),
  ('CC[C@H]1OC(=O)[C@H](C)C[C@H](C)[C@@H](O[C@@H]2O[C@H](C)C[C@H](N(C)C)[C@H]2O)[C@](C)(OC)C[C@@H](C)C(=NOC)[C@H](C)[C@@H](O)[C@]1(C)O [Ex. 6]', 'STAPHYLOCOCCUS AUREUS A-5278', '> 100'),
  ('CC[C@H]1OC(=O)[C@H](C)C[C@H](C)[C@@H](O[C@@H]2O[C@H](C)C[C@H](N(C)C)[C@H]2O)[C@](C)(OC)C[C@@H](C)C(=NO)[C@H](C)[C@@H](O)[C@]1(C)O [Ex. 2]', 'STAPHYLOCOCCUS AUREUS A-5278', '> 100'),
  ('CC[C@H]1OC(=O)[C@H](C)C[C@H](C)[C@@H](O[C@@H]2O[C@H](C)C[C@H](N(C)C)[C@H]2O)[C@](C)(OC)C[C@@H](C)C(=NOCOCCOC)[C@H](C)[C@@H](O)[C@]1(C)O [Ex. 8]', 'STAPHYLOCOCCUS AUREUS A-5278', '> 100');
